- System: IL-17 production from human Th17 cells
- PROTOCOL NOTES: IL-17 production from human Th17 cells
- Type: cell-based
- CONDITIONS: IL-17A in supernatant by ELISA after 6 days, human CD4+ T cells under Th17 differentiation
REPORTED METRIC: log10 IC50 (log10 of the value in nM)

| COMPOUND | log10 IC50 |
| --- | --- |
| C[C@@H](C(=O)N1CCC(c2cn(C)c3ncc(NC(=O)c4cc(O)cc(C#N)c4)c(C(F)(F)F)c23)CC1)C(C)(C)C | 0.70 |
| Cc1c(NC(=O)c2cccc(C#N)c2)cnc2c1c([C@@H]1CCN(C(=O)CC3CCCC3)C(C)(C)C1)cn2C | 0.56 |
| Cc1c(NC(=O)c2cccc(C#N)c2)cnc2c1c(C1CCN(C(=O)[C@@H]3CCCC3C(C)C)CC1)cn2C (stereo in doubt) | 0.90 |
| Cn1cc(C2CCN(C(=O)[C@H]3C[C@H]4CCCC[C@H]4C3)CC2)c2c(C(F)(F)F)c(NC(=O)c3cccc(C#N)c3)cnc21 | 1.03 |
| Cc1c(NC(=O)c2cccc(C#N)c2)cnc2c1c(C1CCN(C(=O)[C@H](C)C(C)C)CC1)cn2C | 0.96 |
| CC(C)C(=O)N1CCC(c2cn(C)c3ncc(NC(=O)c4ccc(F)c(Cl)c4)c(C(F)(F)F)c23)CC1 | 1.76 |

----------
- Tested on: IL-17 production from human Th17 cells
- PROTOCOL NOTES: IL-17 production from human Th17 cells
- Format: cell-based
- CONDITIONS: IL-17A in supernatant by ELISA after 6 days, human CD4+ T cells under Th17 differentiation
pIC50: −log10 of the molar value.
The entries below are paired with their reported pIC50.
REPORTED METRIC: pIC50

| MOLECULE | RESULT |
| --- | --- |
| CC(C)C(=O)N1C[C@H]2CC[C@@H](C1)[C@@H]2c1cn(C)c2ncc(NC(=O)c3cccc(C#N)c3)c(C(F)(F)F)c12 | 8.05 |
| CC(C)C(=O)N1CC[C@@H](c2cn(C)c3ncc(NC(=O)c4cccc(C#N)c4F)c(C(F)(F)F)c23)[C@@H](C)C1 | 8.24 |
| CC(C)C(=O)N1CCC(c2cn(C)c3ncc(NC(=O)c4cccc(C#N)c4)c(C(F)(F)F)c23)CC1 | 8.02 |
| CC(C(=O)N1CCC(c2cn(C)c3ncc(NC(=O)c4cccc(C#N)c4)c(C(F)(F)F)c23)CC1)C1CC1 (racemic) | 7.85 |
| Cn1cc(C2CCN(C(=O)CC3CC3)CC2)c2c(C(F)(F)F)c(NC(=O)c3cccc(C#N)c3)cnc21 | 7.76 |
| COc1ccc(C(=O)Nc2cnc3c(c(C4[C@@H]5CC[C@H]4CN(C(=O)C4CCCC4)C5)cn3C)c2C)cc1C#N (stereo partly shown) | 7.83 |
| COc1cc(Cl)cc(C(=O)Nc2cnc3c(c(C4CCN(C(=O)[C@H](C)C(C)(C)C)CC4)cn3C)c2C)c1 | 7.50 |

----------
- Test system: IL-17 production from human Th17 cells
- PROTOCOL NOTES: IL-17 production from human Th17 cells
- Type: cell-based
- CONDITIONS: IL-17A in supernatant by ELISA after 6 days, human CD4+ T cells under Th17 differentiation
pIC50: −log10 of the molar value.
The entries below are paired with their reported pIC50.

| MOLECULE | pIC50 |
| --- | --- |
| Cc1c(NC(=O)c2cc(O)cc(C#N)c2)cnc2c1c(C1CCN(C(=O)[C@H](C)C(C)(C)C)CC1)cn2C | 8.31 |
| COc1ccc(C(=O)Nc2cnc3c(c(C4CCN(C(=O)C(C)C)CC4)cn3C)c2C)cc1C#N | 7.61 |
| COc1cc(Cl)cc(C(=O)Nc2cnc3c(c([C@@H]4CCN(C(=O)C5CCCC5)C(C)(C)C4)cn3C)c2C)c1 | 7.92 |
| COc1cc(C#N)cc(C(=O)Nc2cnc3c(c([C@@H]4CCN(C(=O)C5CCCC5)[C@@H](C)C4)cn3C)c2C)c1 | 7.91 |
| Cn1cc(C2[C@@H]3CC[C@H]2CN(C(=O)C2CCCC2)C3)c2c(C(F)(F)F)c(NC(=O)c3cccc(C#N)c3)cnc21 (some centres unmarked) | 8.39 |
| COc1ccc(C(=O)Nc2cnc3c(c(C4CCN(C(=O)C(C)C)CC4)cn3C)c2C(F)(F)F)cc1Cl | 7.29 |
| Cc1c(NC(=O)c2cccc(C#N)c2)cnc2c1c(C1CCN(C(=O)[C@@H]3CCC[C@@H]3C(C)C)CC1)cn2C (single isomer, unassigned) | 7.87 |
| CC(C)C(=O)N1CCC(c2cn(C)c3ncc(NC(=O)c4ccc(F)c(C#N)c4)c(C(F)(F)F)c23)CC1 | 7.56 |
| COc1cc(Cl)cc(C(=O)Nc2cnc3c(c(C4CCN(C(=O)C(C)C)CC4)cn3C)c2C(F)(F)F)c1 | 7.31 |
| Cc1c(NC(=O)c2cccc(C#N)c2)cnc2c1c(C1CCN(C(=O)CC(C)C)CC1)cn2C | 7.49 |
| Cn1cc(C2CCN(C(=O)C3CCCC3)CC2)c2c(C(F)(F)F)c(NC(=O)c3ccc(F)c(C#N)c3)cnc21 | 7.41 |
| Cc1c(NC(=O)c2cc(Cl)ccc2F)cnc2c1c(C1CCN(C(=O)[C@H](C)C(C)(C)C)CC1)cn2C | 7.72 |
| Cc1c(NC(=O)c2cccc(C#N)c2)cnc2c1c(C1CCN(C(=O)[C@H]3CCC[C@@H]3C)CC1)cn2C (single isomer, unassigned) | 7.24 |
| Cc1c(NC(=O)c2cccc(C#N)c2)cnc2c1c([C@@H]1CCN(C(=O)C(C)C)[C@@H](C)C1)cn2C | 7.53 |

----------
- Test system: IL-17 production from human Th17 cells
- PROTOCOL NOTES: IL-17 production from human Th17 cells
- Assay type: cell-based
- CONDITIONS: IL-17A in supernatant by ELISA after 6 days, human CD4+ T cells under Th17 differentiation
pIC50: −log10 of the molar value.
The entries below are paired with their reported pIC50.

| COMPOUND | pIC50 |
| --- | --- |
| Cc1c(NC(=O)c2cccc(C#N)c2)cnc2c1c(C1CCN(C(=O)c3cccc4c3CCC4)CC1)cn2C [Example 34] | 8.02 |
| Cc1c(NC(=O)c2cccc(C#N)c2)cnc2c1c([C@@H]1CCN(C(=O)CC3CCC3)C(C)(C)C1)cn2C [Example 76] | 8.30 |
| CC(C)C(=O)N1CCC(c2cn(C)c3ncc(NC(=O)c4ccc(Cl)c(C#N)c4)c(C(F)(F)F)c23)CC1 [Example 11] | 8.11 |
| COc1cc(Cl)cc(C(=O)Nc2cnc3c(c([C@@H]4CCN(C(=O)C(C)C)C(C)(C)C4)cn3C)c2C)c1 [Example 62] | 7.80 |
| Cc1cccc(F)c1C(=O)N1CCC(c2cn(C)c3ncc(NC(=O)c4cccc(C#N)c4)c(C)c23)CC1 [Example 33] | 7.86 |
| Cc1ccc(C(=O)Nc2cnc3c(c([C@@H]4CCN(C(=O)C5CCCC5)C(C)(C)C4)cn3C)c2C)cc1C#N [Example 59] | 8.00 |
| Cn1cc([C@@H]2CCN(C(=O)C3CCCC3)C(C)(C)C2)c2c(C(F)(F)F)c(NC(=O)c3cccc(C#N)c3)cnc21 [Example 65] | 7.97 |
| Cn1cc(C2CCN(C(=O)[C@@H]3CCCS3)CC2)c2c(C(F)(F)F)c(NC(=O)c3cccc(C#N)c3)cnc21 (single isomer, unassigned) [Example 29] | 8.07 |
| Cn1cc(C2CCN(C(=O)C3CCCC3)CC2)c2c(C(F)(F)F)c(NC(=O)c3cc(O)cc(C#N)c3)cnc21 [Example 55] | 8.22 |
| Cn1cc(C2CCN(C(=O)CC3CCCCC3)CC2)c2c(C(F)(F)F)c(NC(=O)c3cccc(C#N)c3)cnc21 [Example 20] | 7.73 |
| Cc1c(NC(=O)c2cccc(C#N)c2)cnc2c1c([C@@H]1CCN(C(=O)CC3CCCCC3)C(C)(C)C1)cn2C [Example 75] | 8.17 |
| Cc1c(NC(=O)c2cccc(C#N)c2)cnc2c1c([C@H]1C[C@H](C)N(C(=O)C3CCCC3)C[C@H]1C)cn2C (relative stereo) [Example 97] | 6.91 |
| Cc1c(NC(=O)c2cccc(C#N)c2)cnc2c1c(C1CCN(C(=O)[C@H](C)C3CCCC3)CC1)cn2C [Example 51] | 8.19 |
| Cc1c(NC(=O)c2ccc(F)c(C#N)c2)cnc2c1c([C@@H]1CCN(C(=O)C3CCCC3)C(C)(C)C1)cn2C [Example 61] | 7.59 |

----------
- Test system: IL-17 production from human Th17 cells
- PROTOCOL NOTES: IL-17 production from human Th17 cells;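 note: purified human CD4+ T cells activated with anti-CD3 plus anti-CD28 and a Th17-inducing cytokine cocktail, with compound at serial concentrations versus no compound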
- Format: cell-based
- CONDITIONS: IL-17A in supernatant by ELISA after 6 days, human CD4+ T cells under Th17 differentiation

| MOLECULE | IC50 |
| --- | --- |
| Cc1c(NC(=O)c2cc(O)cc(C#N)c2)cnc2c1c([C@@H]1CCN(C(=O)C3CCCC3)C(C)(C)C1)cn2C | 10.2 nM |
| Cc1c(NC(=O)c2cccc(C#N)c2)cnc2c1c([C@@H]1CCN(C(=O)C[C@@H](O)C(F)(F)F)C(C)(C)C1)cn2C | 25.3 nM |
| Cc1c(NC(=O)c2cccc(C#N)c2)cnc2c1c(C1CCN(C(=O)[C@@H]3CCC[C@H]3C)CC1)cn2C (single isomer, unassigned) | 8.4 nM |
| Cn1cc(C2CCN(C(=O)[C@H]3CCCS3)CC2)c2c(C(F)(F)F)c(NC(=O)c3cccc(C#N)c3)cnc21 (single isomer, unassigned) | 118 nM |
| Cn1cc(C2CCN(C(=O)CC3CCC3)CC2)c2c(C(F)(F)F)c(NC(=O)c3cccc(C#N)c3)cnc21 | 10.8 nM |
| Cc1c(NC(=O)c2cccc(C#N)c2)cnc2c1c([C@@H]1CCN(C(=O)C(C)C3CC3)C[C@@H]1C)cn2C (stereo partly shown) | 34.9 nM |
| Cc1c(NC(=O)c2cccc(C#N)c2)cnc2c1c(C1CCN(C(=O)[C@H](C)C34CC(C3)C4)CC1)cn2C | 3.4 nM |
